Tested on: NCI/ADR-RES ovarian
Test: NCI tumour cell line growth inhibition, 48 h
# key: entry, value: TGI

Consider the worked cases shown below.
C=CN(C)S(C)(=O)=O; > 100 µM
CSc1ncnc2c1ncn2C1OC(CO)C(O)OC1O (stereo unspecified); > 93.1 µM
COc1c(OC/C=C(\C)CCC=C(C)C)ccc2ccc(=O)oc12; > 100 µM
O=[N+]([O-])c1cc(Cl)cc2cc(Br)cnc12; > 31.6 µM
CN1CCN(CCCCN2c3ccccc3Sc3cc(N=[N+]=[N-])ccc32)CC1; 7.86 µM
Nc1c(C(=O)c2ccc(CCCN3CCOCC3)cc2)cnn1-c1ccc(F)cc1; > 25 µM
Cc1ncsc1-c1ccc(CNC(=O)[C@@H]2C[C@@H](O)CN2C(=O)[C@@H](NC(=O)C2(C#N)CC2)C(C)(C)C)cc1; > 100 µM
CCc1ccc2c(c1)N(CCO)C1=C(C(=O)OC1)C2c1cccc(Cl)c1 (stereo unspecified); 5.05 µM

// recorded TGI for `C[Si](C)(OCCS(=O)(=O)O)OC(=C1S(=O)(=O)OCCOS1(=O)=O)c1cccc2ccccc12` : > 100 µM

Form field TGI, entry `O=c1c2cc([N+](=O)[O-])ccc2nc2n1CCCCC2` : > 100 µM

response.value for CCN(CC)CCCC(C)N=c1cc(Nc2cc(=NC(C)CCCN(CC)CC)c3cc(OC)ccc3o2)oc2ccc(OC)cc12 (stereo unspecified) (field: TGI) = 15.3 µM

====

System: LOX IMVI melanoma
Assay: NCI tumour cell line growth inhibition, 48 h
measurementType: TGI (µM)
Hi! Could you send only the number? It should be in µM, unit omitted.

COC(=O)/C=C\C(C#N)(C#N)N=Cc1ccc(Br)s1; 7.39

--- query ---
Lab note: `N#C/C(=C/Sc1ccccc1)C(=O)O` gave TGI of 24.5

====

System: HL-60(TB) leukemia
Experiment: NCI tumour cell line growth inhibition, 48 h
Form field: TGI (one value per entry).

CCCC(=O)O.CCCC(=O)O.CCCC(=O)O.CCCC(=O)O.[Rh].[Rh]; 0.351 µM
CC(=O)c1cccc(NC(=O)C(=O)Nn2c(N)nnc2N)c1; > 100 µM
Nc1nc(Nc2ccccc2)sc1C(=O)c1cccs1; 12.5 µM

Short answer for C=C1C(=O)OC2CC1CCC1(C)OC1CCC(C)=CCCC2(C)O (stereo not given) : TGI was 2.62 µM

Consider COc1c(C)cc2c(c1O)C1NC(C2)[C@H](O)N2C3COC(=O)[C@@]4(CS[C@@H](c5c(OC(C)=O)c(C)c6c(c53)OCO6)C12)NCCC1=C4NC2C=CC=CC12 (stereo not given in full) . Its measured TGI is < 0.01 µM

Lab note: measured TGI of COC1CC(NC(=O)C(F)(F)F)C(OC(C)=O)C(C)O1 (stereo not given) was > 100 µM

Field TGI (entry `Cc1nc2ccccc2c(=O)n1NC(=S)Nc1ccc(Cl)cc1[N+](=O)[O-]` ) reads > 100 µM

TGI measured on Cc1cc(Oc2ccc3nc(COc4ccc(CC5SC(=O)NC5=O)cc4)n(C)c3c2)cc(C)c1N (stereo not given) = 88 µM

Record `NC1=NCCN1CC(=O)O` , field TGI: > 1000 µM

The measured TGI associated with OCC1OC(n2cnc3c(Cl)nc(Cl)cc32)C(O)C1O (stereo not given) reads > 100 µM

Recorded values, source PubChem BioAssay (NCI).
